Tested on: AD38 cells
Test: Viability of AD38 cells (Promega CellTiter-Glo) at the end of compound treatment
Format: cell-based
Settings: 10 μM compound, 6 days, luminescence normalized against DMSO control wells (controls being 100%)
MEASUREMENT TYPE: AD38 Viability Normalized Result (CPAM/DMSO %) at 10 μM
Numbers only, in %.

O=C(NCc1ccccc1)c1ccc2c(c1)NC(=O)c1ccccc1S2	106
O=C(Nc1nc2ccc(F)cc2s1)c1ccc2c(c1)NC(=O)c1cc(F)ccc1S2	103
O=C(NCCc1cncnc1)c1ccc2c(c1)NC(=O)c1cc(F)ccc1S2	83
CN1C(=O)c2ccccc2Sc2ccc(C(=O)NCCc3cccc(O)c3)cc21	99
COc1cc2c(cc1C(=O)NCCC1CCCCC1)NC(=O)c1ccccc1S2	96

For each of the molecules below, state AD38 Viability Normalized Result (CPAM/DMSO %) at 10 μM.
1. Cl.O=C(NCC1CCCN1)c1ccc2c(c1)NC(=O)c1ccccc1S2 (centres unmarked)
2. O=C(NCCc1ccc(-c2ccccc2)cc1)c1ccc2c(c1)NC(=O)c1ccccc1S2
3. O=C(NCCc1ccccc1)c1ccc2c(c1)Sc1ccccc1C(=O)N2

Response:
1: 124; 2: 89; 3: 125

* * *

Test system: HBV viral production in AD38 cells
Test: Viral load production in AD38 cells by quantitative PCR of the HBV core sequence in supernatant
Assay type: cell-based
Details: Hepatitis B virus, 144 h; 10 μM compound, 6 days at 37° C., viral load in supernatant compared against DMSO control wells; read-out: AD38 Viral Load (CpAM/DMSO %) at 10 μM
MEASUREMENT TYPE: activity at 10 µM (%)
Give bare numbers, in %.

Example entries begin here.
O=C(NCCc1ccc(-c2ccccc2)cc1)c1ccc2c(c1)NC(=O)c1cc(F)ccc1S2 [Compound 1370]	5
O=C(NCc1cccnc1)c1cc2c(cc1F)Sc1ccccc1C(=O)N2 [Compound 1396]	63
Cc1cccc(CCNC(=O)c2ccc3c(c2)NC(=O)c2ccccc2S3)c1 [Compound 1183]	2
O=C(NCc1cncs1)c1ccc2c(c1)NC(=O)c1c(F)cccc1S2 [Compound 1541]	11
CN(C)S(=O)(=O)c1ccc(CCCNC(=O)c2ccc3c(c2)NC(=O)c2ccc(F)cc2S3)cc1 [Compound 1398]	5
Cc1cc2c(cc1C(=O)NCCC1CCCCC1)NC(=O)c1ccccc1S2 [Compound 1275]	3

For each of the molecules below, state activity at 10 µM.
1. O=C(NCCCOc1ccccc1)c1ccc2c(c1)NC(=O)c1ccccc1S2 [Compound 1241]
2. O=C1Nc2cc(S(=O)(=O)NCc3cncs3)ccc2Sc2ccccc21 [Compound 1556]
3. NC(=O)CSc1nnc(CCNC(=O)c2ccc3c(c2)NC(=O)c2ccccc2S3)o1 [Compound 1582]
4. Cc1c(C(=O)NCc2cnco2)ccc2c1NC(=O)c1ccccc1S2 [Compound 1514]
5. O=C(NCCc1ccc(-c2ccccc2)cc1)c1ccc2c(c1)NC(=O)c1ccccc1[S+]2[O-] (stereo not shown) [Compound 1476]
6. O=C(NCc1cscn1)c1ccc2c(c1)NC(=O)c1ccccc1S2 [Compound 1584]

Response:
1. 12
2. 67
3. 8
4. 13
5. 1
6. 52

* * *

Tested on: AD38 cells
Assay: Viability of AD38 cells (Promega CellTiter-Glo) at the end of compound treatment
Assay type: cell-based
Conditions: 10 μM compound, 6 days, luminescence normalized against DMSO control wells (controls being 100%)
So I've got a bunch of compounds here, and I need their AD38 Viability Normalized Result (CPAM/DMSO %) at 10 μM values.
Give bare numbers, in %.

Example entries begin here.
NC(=O)c1ccc2c(c1)Sc1ccc(C(=O)NCCc3ccccc3)cc1NC2=O [Compound 1279]	84
O=C(Nc1ccc(Cl)cn1)c1ccc2c(c1)NC(=O)c1cc(F)ccc1S2 [Compound 1338]	118
O=C(NCCc1ccc(Br)cc1)c1ccc2c(c1)NC(=O)c1ccccc1S2 [Compound 1122]	86
O=C(Nc1cncc(F)c1)c1ccc2c(c1)NC(=O)c1cc(F)ccc1S2 [Compound 1337]	91
O=C(NCc1cccnc1)c1ccc2c(c1)NC(=O)c1ccccc1O2 [Compound 1594]	109

For each of the compounds below, state AD38 Viability Normalized Result (CPAM/DMSO %) at 10 μM.
1. O=C(Nc1ncc(-c2ccccc2)o1)c1ccc2c(c1)NC(=O)c1cc(F)ccc1S2 [Compound 1480]
2. Cc1c(C(=O)NCCc2ccc(-c3ccccc3)cc2)ccc2c1NC(=O)c1ccccc1S2 [Compound 1495]

Response:
[95, 77]

For each of the compounds below, state AD38 Viability Normalized Result (CPAM/DMSO %) at 10 μM.
1. CN(C)S(=O)(=O)c1ccc(CCNC(=O)c2ccc3c(c2)NC(=O)c2ccccc2N3Cc2ccccc2)cc1 [Compound 1512]
2. O=C(Nc1ccc(Cl)cc1F)c1ccc2c(c1)NC(=O)c1cc(F)ccc1S2 [Compound 1334]

Response:
1: 99; 2: 83
